# Tested on: Plasmodium berghei
# Procedure Text: Luciferase/luciferin-expressing antifolate-resistant parasites were used to infect a culture of HepG2 cells that were pre-incubated with compounds. Infected hepatocytes emit light due to the luciferase reaction. Assay results are presented as the percent inhibition of light emission compared to control. […]
# Assay type: functional
# Measurement Setup: sporozoite, HEPG2TOX_HILL_SLOPE 6.56, HEPG2TOX_R_SQUARED 0.678, PBLUC_HILL_SLOPE 73.6, 3.22, PBLUC_R_SQUARED 0.772, 0.348, read-out: LUCIFERASE INFECTION ASSAY - IC50
Endpoint Name: pIC50
Answer as the number alone; pIC50 is minus log10 of concentration in mol/L.

Provide measured pIC50 on Plasmodium berghei for Cc1ccc(-c2nc(NC(=O)c3ccn(C)c(=O)c3)sc2-c2ccc(C)cc2)cc1 please.
5.42
